Measured viability, T/C, listed per entry.
- Test system: 217524-143-R1-J4-PDC spheroids with HUVEC/MSC, viability;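 note: spheroids exposed to agents for seven days before reading; 100% = DMSO vehicle control viability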
- method_summary: Anticancer human tumor 217524-143-R1-J4-PDC patient-derived pancreatic carcinoma cell line growth inhibition [CLK]
- experimental_context: second compound 10 µM; first compound 0.0316 µM; active compounds read low
- Source text: A high-throughput screen of multi-cell type tumor spheroids was designed to identify active combinations of […] and targeted small molecules. Complex spheroids include a stromal component modeled by human endothelial cells (HUVEC) and fibroblasts modeled by human mesenchymal stem cells (MSCs). […] Compounds. […] If the clinical Cmax for an agent had not been determined, the highest concentration tested was 10 microM. […]

[
  {
    "compound": "O=C(c1cc(Cc2n[nH]c(=O)c3ccccc23)ccc1F)N1CCN(C(=O)C2CC2)CC1 + CN1CCN(c2cc(C(=O)Nc3cc4cc(-c5cnn(C)c5)ccc4cn3)ccn2)CC1",
    "viability, T/C": "0.16%"
  },
  {
    "compound": "CC(Nc1ccc2c(c1)OCCn1cc(N3C(=O)OCC3C(F)F)nc1-2)C(N)=O (stereo not given) + CN1CCN(c2cc(C(=O)Nc3cc4cc(-c5cnn(C)c5)ccc4cn3)ccn2)CC1",
    "viability, T/C": "0.11%"
  },
  {
    "compound": "CC(CO)NC(=O)c1cc(-c2ccc(Cl)cc2)nn(-c2cnn(C)c2)c1=O (stereo not given) + CNC(=O)c1ccc(Nc2nc(OC3CCCC3)c3c(-c4ccc5nc(C)oc5c4)c[nH]c3n2)c(OC)c1",
    "viability, T/C": "31.3%"
  },
  {
    "compound": "CCc1c2c(nc3ccc(O)cc13)-c1cc3c(c(=O)n1C2)COC(=O)[C@]3(O)CC + CN1CCN(c2cc(C(=O)Nc3cc4cc(-c5cnn(C)c5)ccc4cn3)ccn2)CC1",
    "viability, T/C": "0.24%"
  },
  {
    "compound": "CC1COCCN1c1cc(C2(S(C)(=N)=O)CC2)nc(-c2ccnc3[nH]ccc23)n1 (stereo not given) + CNC(=O)c1ccc(Nc2nc(OC3CCCC3)c3c(-c4ccc5nc(C)oc5c4)c[nH]c3n2)c(OC)c1",
    "viability, T/C": "28.1%"
  }
]
